// provenance: patent US20100247589A1

Below, each entry is listed with its recorded O.D.450 (normalized).
# measurement_target: tooth pellicle (thin film derived from salivary glycoproteins, formed in a human mouth) (human)
# test_summary: phage ELISA on pellicle-coated bovine enamel, anti-M13-HRP, normalized to internal control

Completed entries (count: 2):
[
  {
    "binder": "KAPIANMLQPHSYQYSVA [DenP18]",
    "O.D.450 (normalized)": 1.14
  },
  {
    "binder": "TTGSSSQADTSASMSIVPAH [DenP17]",
    "O.D.450 (normalized)": 0.971
  }
]

Attention now turns to another entry.
The measured O.D.450 (normalized) associated with TMTNHVYNSYTEKHSSTHRS [DenP2] reads 1.95
